Taken from patent US5518735A.

- assay-text: Plasma concentration in rats after intravenous administration (HPLC)
- measurement-parameters: rat, plasma, iv, 1 mg/kg
Counter-ions that a name gives are not always drawn.
Catalogue of compounds with associated concentration at 1 h
# number only, unit ng/mL dropped from output

Field: example entries. Status: answers known.
compound	reported
N=C(N)c1cccc(C[C@H](NS(=O)(=O)c2ccc3ccccc3c2)C(=O)N2CCC[C@@H]2C(=O)O)c1 [Compound 123, hydrochloride]	160
NCc1cccc(CC(NS(=O)(=O)c2ccc3ccccc3c2)C(=O)N2CCC(C(=O)O)CC2)c1 (racemic)	193
N=C(N)c1cccc(CC(NS(=O)(=O)c2ccc3ccccc3c2)C(=O)N2CCCCC2C(=O)O)c1 (racemic)	85
N=C(N)c1cccc(CC(NS(=O)(=O)c2ccc3ccccc3c2)C(=O)N2Cc3ccccc3CC2C(=O)O)c1 (racemic)	10

Query :: Give the measured concentration at 1 h of N=C(N)c1cccc(CC(NS(=O)(=O)c2ccc3ccccc3c2)C(=O)N2CCC(C(=O)O)CC2)c1 (racemic) .
Result :: 99

====

- target-under-test: UniProt P00750
- Sequence (P00750 36-562): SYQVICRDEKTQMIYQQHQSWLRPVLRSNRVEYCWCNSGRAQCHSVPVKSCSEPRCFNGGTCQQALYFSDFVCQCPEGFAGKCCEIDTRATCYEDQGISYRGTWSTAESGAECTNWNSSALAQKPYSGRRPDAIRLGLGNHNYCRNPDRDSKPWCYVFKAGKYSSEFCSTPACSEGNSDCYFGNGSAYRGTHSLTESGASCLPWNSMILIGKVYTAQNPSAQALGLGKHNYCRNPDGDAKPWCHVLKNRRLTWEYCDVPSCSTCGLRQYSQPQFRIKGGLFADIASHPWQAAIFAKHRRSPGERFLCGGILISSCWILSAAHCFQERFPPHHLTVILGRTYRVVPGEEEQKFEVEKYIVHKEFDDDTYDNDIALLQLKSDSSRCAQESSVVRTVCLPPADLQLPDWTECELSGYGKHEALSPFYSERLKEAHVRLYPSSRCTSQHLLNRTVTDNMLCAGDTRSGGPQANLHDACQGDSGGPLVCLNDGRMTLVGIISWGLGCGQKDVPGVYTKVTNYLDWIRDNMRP
Counter-ions that a name gives are not always drawn.
attribute-measured: Ki (µM)
Enter your answer as a number in µM; do not include the unit.

Answered examples (4):
compound	reported
COC(=O)C(Cc1cccc(C(=N)N)c1)NS(=O)(=O)c1ccc2ccccc2c1 (racemic) [Compound 7]	120
CN1CCN(C(=O)C(Cc2cccc(C(=N)N)c2)NS(=O)(=O)c2ccc3ccccc3c2)CC1 (racemic) [Compound 35]	430
COC(=O)[C@H]1CCCN1C(=O)[C@H](Cc1cccc(C(=N)N)c1)NS(=O)(=O)c1ccc2ccccc2c1 [Compound 124, hydrochloride]	225
N=C(N)c1cccc(C[C@H](NS(=O)(=O)c2ccc3ccccc3c2)C(=O)N2CCC[C@@H]2C(=O)O)c1 [Compound 123, hydrochloride]	300

Query :: Query the reported Ki for UniProt P00750; item: CC1CCN(C(=O)C(Cc2cccc(C(=N)N)c2)NS(=O)(=O)c2ccc3ccccc3c2)C(C(=O)O)C1 (racemic) [Compound 86]
Result :: 470

====

- assay-text: Plasma concentration in rats after oral administration (HPLC)
- measurement-parameters: rat, plasma, po, 100 mg/kg
Where a name gives a salt, the structure may show the parent alone.
attribute-measured: concentration at 4 h (µg/mL)
All answers are understood in µg/mL, so give the number only.

molecule	concentration at 4 h (µg/mL)
N=C(N)c1cccc(CC(NS(=O)(=O)c2ccc3ccccc3c2)C(=O)N2Cc3ccccc3CC2C(=O)O)c1 (racemic)	0.21

Query :: Look up concentration at 4 h for this molecule: NCc1cccc(CC(NS(=O)(=O)c2ccc3ccccc3c2)C(=O)N2CCC(C(=O)O)CC2)c1 (racemic)
Result :: 0.328

Query :: Fill blank: measured concentration at 4 h of the molecule N=C(N)c1cccc(C[C@H](NS(=O)(=O)c2ccc3ccccc3c2)C(=O)N2CCC[C@@H]2C(=O)O)c1 [Compound 123, hydrochloride] is ____.
Result :: 0.067

Query :: Entry under review: N=C(N)c1cccc(CC(NS(=O)(=O)c2ccc3ccccc3c2)C(=O)N2CCCCC2C(=O)O)c1 (racemic) . Reported concentration at 4 h?
Result :: 0.023

Query :: Please give the measured concentration at 4 h for this molecule: N=C(NO)c1cccc(CC(NS(=O)(=O)c2ccc3ccccc3c2)C(=O)N2Cc3ccccc3CC2C(=O)O)c1 (racemic) [Compound 190, hydroiodide]
Result :: 0.113
